system: Human Rhinovirus 14 (HRV14) in H1-HeLa cells; assay: H1-HeLa HRV-CTG 384-well Assay (Ex. Y), HRV14; type: cell-based; details: Rhinovirus B, 96 h; H1-HeLa cells, HRV14 MOI 1.0, 4 days, Celltiter-Glo; read-out: EC50 H1-HeLa_HRV14_HRV-CTG 384-well Assay (per Ex Y)
Property name: EC50 (µM)

Chem smiles	Measurement target	Property name	Units	Meas value
N#C[C@]1(COC(=O)C2CCCCC2)O[C@@H](c2ccc3c(N)ncnn23)[C@H](O)[C@@H]1O	Human Rhinovirus 14 (HRV14) in H1-HeLa cells	EC50	µM	6.84
CC(C)(C)CC(=O)OC[C@@]1(C#N)O[C@@H](c2ccc3c(N)ncnn23)[C@H](O)[C@@H]1O	Human Rhinovirus 14 (HRV14) in H1-HeLa cells	EC50	µM	50
CC(=O)OC[C@@]1(C#N)O[C@@H](c2ccc3c(N)ncnn23)[C@H](O)[C@@H]1O	Human Rhinovirus 14 (HRV14) in H1-HeLa cells	EC50	µM	4.61
CC(C)CC(=O)OC[C@@]1(C#N)O[C@@H](c2ccc3c(N)ncnn23)[C@H](O)[C@@H]1O	Human Rhinovirus 14 (HRV14) in H1-HeLa cells	EC50	µM	9.33
N#C[C@]1(COC(=O)[C@H]2CCC(=O)O2)O[C@@H](c2ccc3c(N)ncnn23)[C@H](O)[C@@H]1O	Human Rhinovirus 14 (HRV14) in H1-HeLa cells	EC50	µM	6.01
N#C[C@]1(COC(=O)C2CCCC2)O[C@@H](c2ccc3c(N)ncnn23)[C@H](O)[C@@H]1O	Human Rhinovirus 14 (HRV14) in H1-HeLa cells	EC50	µM	6.93
CCC(=O)OC[C@@]1(C#N)O[C@@H](c2ccc3c(N)ncnn23)[C@H](O)[C@@H]1O	Human Rhinovirus 14 (HRV14) in H1-HeLa cells	EC50	µM	10.5
CC(C)C(=O)Nc1ncnn2c([C@@H]3O[C@](C#N)(CO)[C@@H](O)[C@H]3O)ccc12	Human Rhinovirus 14 (HRV14) in H1-HeLa cells	EC50	µM	36.2
CC1(C(=O)OC[C@@]2(C#N)O[C@@H](c3ccc4c(N)ncnn34)[C@H](O)[C@@H]2O)CCC1	Human Rhinovirus 14 (HRV14) in H1-HeLa cells	EC50	µM	6.34
N#C[C@]1(COC(=O)CC2CCC2)O[C@@H](c2ccc3c(N)ncnn23)[C@H](O)[C@@H]1O	Human Rhinovirus 14 (HRV14) in H1-HeLa cells	EC50	µM	6.99
CC(=O)OC[C@@]1(C#N)O[C@@H](c2ccc3c(N)ncnn23)[C@H](OC(C)=O)[C@@H]1OC(C)=O	Human Rhinovirus 14 (HRV14) in H1-HeLa cells	EC50	µM	19.8
Cc1ccc(C(=O)OC[C@@]2(C#N)O[C@@H](c3ccc4c(N)ncnn34)[C@H](O)[C@@H]2O)cc1	Human Rhinovirus 14 (HRV14) in H1-HeLa cells	EC50	µM	8.17
CC(C)C(=O)OC[C@@]1(C#N)O[C@@H](c2ccc3c(N)ncnn23)[C@H](OC(=O)C(C)C)[C@@H]1OC(=O)C(C)C	Human Rhinovirus 14 (HRV14) in H1-HeLa cells	EC50	µM	12.8
CC(=O)OC[C@@]1(C#N)O[C@@H](c2ccc3c(NC(=O)C(C)C)ncnn23)[C@H](O)[C@@H]1O	Human Rhinovirus 14 (HRV14) in H1-HeLa cells	EC50	µM	49.8
CC(C)(C)CCC(=O)OC[C@@]1(C#N)O[C@@H](c2ccc3c(N)ncnn23)[C@H](O)[C@@H]1O	Human Rhinovirus 14 (HRV14) in H1-HeLa cells	EC50	µM	6.51
CC(C)C(=O)OC[C@@]1(C#N)O[C@@H](c2ccc3c(N)ncnn23)[C@H](O)[C@@H]1O	Human Rhinovirus 14 (HRV14) in H1-HeLa cells	EC50	µM	5.13
CCC(C)(C)CC(=O)OC[C@@]1(C#N)O[C@@H](c2ccc3c(N)ncnn23)[C@H](O)[C@@H]1O	Human Rhinovirus 14 (HRV14) in H1-HeLa cells	EC50	µM	50
CCC(C)(C)C(=O)OC[C@@]1(C#N)O[C@@H](c2ccc3c(N)ncnn23)[C@H](O)[C@@H]1O	Human Rhinovirus 14 (HRV14) in H1-HeLa cells	EC50	µM	24.6
[H]/N=c1/c2ccc([C@@H]3O[C@](C#N)(CO)[C@@H](O)[C@H]3O)n2ncn1COC(=O)C(C)C	Human Rhinovirus 14 (HRV14) in H1-HeLa cells	EC50	µM	50
CC1(C)CC(C(=O)OC[C@@]2(C#N)O[C@@H](c3ccc4c(N)ncnn34)[C@H](O)[C@@H]2O)C1	Human Rhinovirus 14 (HRV14) in H1-HeLa cells	EC50	µM	7.83
CC[C@@H](C)C(=O)OC[C@@]1(C#N)O[C@@H](c2ccc3c(N)ncnn23)[C@H](O)[C@@H]1O	Human Rhinovirus 14 (HRV14) in H1-HeLa cells	EC50	µM	11.9
CC(C)C(=O)O[C@H]1[C@H](c2ccc3c(N)ncnn23)O[C@](C#N)(COC(=O)c2ccccc2)[C@H]1O	Human Rhinovirus 14 (HRV14) in H1-HeLa cells	EC50	µM	15.9
CCCC(=O)OC[C@@]1(C#N)O[C@@H](c2ccc3c(N)ncnn23)[C@H](O)[C@@H]1O	Human Rhinovirus 14 (HRV14) in H1-HeLa cells	EC50	µM	7.86
CC(C)(C)CC(=O)Nc1ncnn2c([C@@H]3O[C@](C#N)(COC(=O)CC(C)(C)C)[C@@H](O)[C@H]3O)ccc12	Human Rhinovirus 14 (HRV14) in H1-HeLa cells	EC50	µM	50
N#C[C@]1(COC(=O)C2CCC2)O[C@@H](c2ccc3c(N)ncnn23)[C@H](O)[C@@H]1O	Human Rhinovirus 14 (HRV14) in H1-HeLa cells	EC50	µM	5.66
CC(C)(CF)C(=O)OC[C@@]1(C#N)O[C@@H](c2ccc3c(N)ncnn23)[C@H](O)[C@@H]1O	Human Rhinovirus 14 (HRV14) in H1-HeLa cells	EC50	µM	16.9
CC1(C(=O)OC[C@@]2(C#N)O[C@@H](c3ccc4c(N)ncnn34)[C@H](O)[C@@H]2O)CC1	Human Rhinovirus 14 (HRV14) in H1-HeLa cells	EC50	µM	50
CC(C)(C)C(=O)OC[C@@]1(C#N)O[C@@H](c2ccc3c(N)ncnn23)[C@H](O)[C@@H]1O	Human Rhinovirus 14 (HRV14) in H1-HeLa cells	EC50	µM	10.9
